Target: human CSNK1D tagged with nanoluciferase (Homo sapiens (Human))
Sequence (P48730 whole entry): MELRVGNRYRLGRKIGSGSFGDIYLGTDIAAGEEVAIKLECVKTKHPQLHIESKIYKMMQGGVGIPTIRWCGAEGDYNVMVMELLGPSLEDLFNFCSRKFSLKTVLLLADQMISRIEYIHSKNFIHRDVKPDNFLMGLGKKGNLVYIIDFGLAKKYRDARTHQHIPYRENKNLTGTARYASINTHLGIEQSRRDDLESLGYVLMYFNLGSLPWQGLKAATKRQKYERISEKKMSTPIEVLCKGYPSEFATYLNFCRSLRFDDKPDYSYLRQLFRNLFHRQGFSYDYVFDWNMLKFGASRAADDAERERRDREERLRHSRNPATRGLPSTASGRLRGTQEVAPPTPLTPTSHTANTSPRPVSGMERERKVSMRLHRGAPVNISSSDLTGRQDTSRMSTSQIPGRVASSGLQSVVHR
Assay: Whole Cell nBRET CSNK1D Binding Assay
Details: living CHO cells stably expressing human CSNK1D-nanoluciferase; NanoBret tracer 130 nM; 2 hours 37° C.; read-out: CSNK1D BRET IC50
Experimental: This cellular binding assay uses a bioluminescence resonance energy transfer to measure human CSNK1D binding activity in living Chinese Hamster Ovary (CHO) cells that are stably expressing human CSNK1D tagged with nanoluciferase. The cells were grown to confluency in growth media (DMEM:F12, 50 u/mLPen/Strep, […] glutamine, and 0.6 mg/mL G418) in 10 cm^2 dishes. […] Donor (450 nm) and acceptor (630 nm) emissions are then measured within 10 minutes using a ClarioStar plate reader. […]
Where a name gives a salt, the structure may show the parent alone.
IC50 overview
result.type: IC50 (nM)

molecule="Cc1cc(-c2cn(C)nc2-c2ccc(F)cn2)c2cc[nH]c2n1 [Example 80]" result_number=41
molecule="Cc1nc(-c2cn(C)nc2-c2ccc(F)cn2)c2cc[nH]c2n1 [Example 123, Trifluoroacetate Salt]" result_number=234
molecule="COc1ncc(-c2nn(C)cc2-c2cc(C)nc3[nH]ncc23)cc1Cl [Example 142]" result_number=382
molecule="Cn1cc(-c2ccnc3cc(Br)cnc23)c(-c2ccc(F)cn2)n1 [Example 153]" result_number=579
molecule="Cc1cc(-c2cn(C)nc2-c2ccc(F)cn2)c2c(C)n[nH]c2n1 [Example 100]" result_number=197
molecule="Cn1cc(-c2ccnc3c2ccn3C)c(-c2ccc(F)cn2)n1 [Example 144]" result_number=1720
molecule="Cn1cc(-c2ccnc3[nH]ccc23)c(-c2cncs2)n1 [Example 14]" result_number=3130
molecule="Cn1cc(-c2ccnc3[nH]ncc23)c(-c2ccncc2F)n1 [Example 19]" result_number=797
molecule="Cn1cc(-c2ccnc3[nH]ccc23)c(-c2cccnn2)n1 [Example 48]" result_number=3470
